assayed-target: Prostaglandin E2 receptor EP4 subtype (Mus musculus)
Sequence (P32240 whole entry): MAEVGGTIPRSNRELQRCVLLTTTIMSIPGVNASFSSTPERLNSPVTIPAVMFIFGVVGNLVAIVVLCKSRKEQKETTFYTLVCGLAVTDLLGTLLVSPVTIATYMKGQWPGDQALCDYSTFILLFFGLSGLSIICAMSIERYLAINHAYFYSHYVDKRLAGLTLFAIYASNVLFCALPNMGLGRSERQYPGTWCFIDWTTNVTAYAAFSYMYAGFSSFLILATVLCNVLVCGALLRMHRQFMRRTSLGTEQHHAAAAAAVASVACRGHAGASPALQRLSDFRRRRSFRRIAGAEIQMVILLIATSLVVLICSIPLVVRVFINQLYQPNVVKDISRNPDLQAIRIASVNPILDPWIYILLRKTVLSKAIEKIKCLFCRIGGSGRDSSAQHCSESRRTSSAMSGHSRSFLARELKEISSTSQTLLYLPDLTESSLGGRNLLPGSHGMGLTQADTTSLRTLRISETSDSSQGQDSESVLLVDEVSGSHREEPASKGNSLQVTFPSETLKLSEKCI
assay: Antagonist activity at mouse EP4 receptor transfected in HEK293 cells assessed as inhibition of PGE2-induced cAMP production measured for 30 mins by Glosensor cAMP assay
quantity-measured: pIC50
Give bare numbers, as −log10 of the molar value.

input: Recorded pIC50 of O=C(O)c1ccc(CNC(=O)c2c3ccccc3nn2Cc2ccc(C(F)(F)F)cc2)cc1 , please.
output: 8.80
